target: recombinant RBD protein of wild-type SARS-CoV-2 (ELISA antigen) (SARS-CoV-2 wild-type, UniProt P0DTC2)
quantityName: binding result

binder	quantityName	result
P2S-2A6 (antibody, V domains shown) VH: EVQLVESGGGLVQPGRSLRLSCAASGMTFDDYDMHWVRQVPGKGLEWVSGISWNGGIIGYADSVKGRFTISRDNAKTSLYLQMNSLRAEDTALYYCAKVAGRGDYDYYYGMDVWGQGTTVTVSS VL: QSVLTQPPSVSGAPGQRVTISCTGSSSNIGAGYDVHWYQQLPGTAPKLLIYGNNNRPSGVPDRFSGSKSGTSASLAITGLQAEDEADYYCQSYDSSLSGSVFGGGTKLTVL	binding result	binds
P5S-2G9 (antibody, V domains shown) VH: QVTLRESGPALVKPTQTLTLTCTFSGFSLRTTGMCVSWIRQPPGKALEWLALIDWDGDKYYATSLETRLTISKDTSENQVVLTMTNMDPVDTATYYCVRTLRLRWLDFWGQGTLVTVSS VL: DIQMTQSPSSLSASVGDRVTITCRASQSIGTSLNWYQQKPVKAPNLLIYGASSLQSGVPSRFSGSGSGTDFTLTISSLQPEDFATYYCQQGYTTPLTFGGGTKVEIK	binding result	binds
P5-2H11 (antibody, V domains shown) VH: EVQLVESGGGLIQPGGSLRLSCAASEFTVSSNYMSWVRQAPGKGLEWVSIIYSGGSTFYADSVKGRFTISRDNSQNTLYLQMNSLRAEDTAVYYCARTLPLYGDYFDYWGQGTLVTVSS VL: QSVLTQPPSVSGAPGQRVTISCTGSSSNIGAGYDVHWYQQLPGTAPKLLIYGNNNRPSGVPDRFSGSKSGTSASLAITGLQPEDEADYYCQSYDSSLSVVFGGGAKLTVL	binding result	binds
